- assay info: Antibacterial activity against Salmonella enterica subsp. enterica serovar Choleraesuis ATCC 13312 incubated overnight by standard microtiter dilution method
- Assay type: functional
Peptide text beside a SMILES is read from it.
# key: entry, value: MIC
readout name: MIC (µg/mL)

compound="CC(C)C[C@H](NC(=O)[C@H](CCCCN)NC(=O)[C@H](CS)NC(=O)CNC(=O)[C@H](CO)NC(=O)[C@H](CCCCN)NC(=O)[C@@H](NC(=O)[C@H](CS)NC(=O)[C@H](CCCCN)NC(=O)[C@@H](N)CC(C)C)[C@@H](C)O)C(N)=O (H-LKCTKSGCKL-NH2)" readout_name=MIC scale_unit=µg/mL limit_operator=> value_reported=128
compound=CN[C@@H]1[C@H](O[C@H]2[C@H](O[C@H]3[C@H](O)[C@@H](O)[C@H](N=C(N)N)[C@@H](O)[C@@H]3N=C(N)N)O[C@@H](C)[C@]2(O)C=O)O[C@@H](CO)[C@H](O)[C@H]1O readout_name=MIC scale_unit=µg/mL limit_operator== value_reported=64
compound="C[C@@H](O)[C@H](NC(=O)[C@H](CS)NC(=O)[C@H](CCCCN)NC(=O)[C@H](Cc1c[nH]c2ccccc12)NC(=O)[C@H](CCCCN)NC(=O)[C@@H](N)Cc1c[nH]c2ccccc12)C(=O)N[C@@H](CCCCN)C(=O)N[C@@H](CO)C(=O)NCC(=O)N[C@@H](CS)C(=O)N[C@@H](CCCCN)C(=O)N[C@@H](Cc1c[nH]c2ccccc12)C(=O)N[C@@H](CCCCN)C(=O)N[C@@H](Cc1c[nH]c2ccccc12)C(N)=O (H-WKWKCTKSGCKWKW-NH2)" readout_name=MIC scale_unit=µg/mL limit_operator== value_reported=1

---

- System: Erythrocyte
- assay info: Hemolytic activity in human Red blood cells assessed as hemolysis incubated for 1 hrs by absorbance based microplate reader analysis
- Format: toxicity, cell-based
Peptide text beside a SMILES is read from it.
readout name: MHC

compound="CC(C)C[C@H](NC(=O)[C@H](CCCCN)NC(=O)[C@H](CC(C)C)NC(=O)[C@H](CCCCN)NC(=O)[C@H](CC(C)C)NC(=O)[C@H](CCCCN)NC(=O)[C@H](CS)NC(=O)CNC(=O)[C@H](CO)NC(=O)[C@H](CCCCN)NC(=O)[C@@H](NC(=O)[C@H](CS)NC(=O)[C@H](CCCCN)NC(=O)[C@H](CC(C)C)NC(=O)[C@H](CCCCN)NC(=O)[C@H](CC(C)C)NC(=O)[C@H](CCCCN)NC(=O)[C@@H](N)CC(C)C)[C@@H](C)O)C(N)=O (H-LKLKLKCTKSGCKLKLKL-NH2)" value_reported="64 µg/mL"
compound="[H]/N=C(/N)N[C@H]1[C@H](O)[C@@H](O)[C@H](O[C@@H]2O[C@@H](C)[C@](O)(C=O)[C@H]2O[C@@H]2O[C@@H](CO)[C@H](O)[C@@H](O)[C@@H]2NC)[C@@H](N/C(N)=N\\[H])[C@@H]1O [STREPTOMYCIN]" value_reported="> 128 µg/mL"
compound="CC(C)[C@H](N)C(=O)N[C@@H](CCCCN)C(=O)N[C@H](C(=O)N[C@@H](CCCCN)C(=O)N[C@H](C(=O)N[C@@H](CCCCN)C(=O)N[C@@H](CS)C(=O)N[C@H](C(=O)N[C@@H](CCCCN)C(=O)N[C@@H](CO)C(=O)NCC(=O)N[C@@H](CS)C(=O)N[C@@H](CCCCN)C(=O)N[C@H](C(=O)N[C@@H](CCCCN)C(=O)N[C@H](C(=O)N[C@@H](CCCCN)C(=O)N[C@H](C(N)=O)C(C)C)C(C)C)C(C)C)[C@@H](C)O)C(C)C)C(C)C (H-VKVKVKCTKSGCKVKVKV-NH2)" value_reported="> 128 µg/mL"
compound="C[C@@H](O)[C@H](NC(=O)[C@H](CS)NC(=O)[C@H](CCCCN)NC(=O)[C@H](Cc1c[nH]c2ccccc12)NC(=O)[C@H](CCCCN)NC(=O)[C@@H](N)Cc1c[nH]c2ccccc12)C(=O)N[C@@H](CCCCN)C(=O)N[C@@H](CO)C(=O)NCC(=O)N[C@@H](CS)C(=O)N[C@@H](CCCCN)C(=O)N[C@@H](Cc1c[nH]c2ccccc12)C(=O)N[C@@H](CCCCN)C(=O)N[C@@H](Cc1c[nH]c2ccccc12)C(N)=O (H-WKWKCTKSGCKWKW-NH2)" value_reported="> 128 µg/mL"
